Where these numbers come from: ChEMBL document CHEMBL5154661

# test.name: Plasma clearance in male ICR mouse at 12.5 mg/kg, iv measured upto 24 hrs by LC-MS/MS analysis
# Assay type: ADME, organism-based
readout.name: clearance
Number first, unit second.

input: For the compound `Cc1ccnc(N2C(=O)CS[C@@H]2c2cccc(C(=O)NCCCCn3cccn3)c2)c1` , what clearance is on record?
output: 66.9 mL/min/kg

----------
# test.name: Half life in male ICR mouse at 12.5 mg/kg, iv measured upto 24 hrs by LC-MS/MS analysis
# Type: ADME, organism-based
# condition.summary: in vivo
readout.name: half-life (min)
Give the value in min but do not write min after it.

input: Consider the compound `Cc1ccnc(N2C(=O)CS[C@@H]2c2cccc(C(=O)NCCCCn3cccn3)c2)c1` and give its measured half-life.
output: 3.66

----------
# test.name: Cytotoxicity against human GES1 cells assessed as growth inhibition measured after 72 hrs by CCK-8 assay
# Assay type: toxicity, cell-based
readout.name: IC50 at 72 h

input: Fill in: IC50 at 72 h of `Cc1ccnc(N2C(=O)CS[C@@H]2c2cccc(C(=O)NCCCCn3cccn3)c2)c1` is ___
output: > 20 µM

----------
For each record, write down the corresponding intrinsic clearance (CLint).
# test.name: Microsomal stability in mouse liver microsomes assessed as intrinsic clearance at 0.1 uM incubated for 10 mins in presence of NADPH by LC-MS/MS analysis
# Format: ADME, Microsome
Quick note: give the figure in mL/min/g, leave out the unit.

input: What value of measured intrinsic clearance (CLint) is listed for O=C(NCCCCc1ccccc1)c1cccc(C2SCC(=O)N2c2ccccc2F)c1 (stereo not drawn) ?
output: 2014

input: Subsequent entry: C#Cc1cccc(N2C(=O)CSC2c2cccc(C(=O)NCCCCc3ccccc3)c2)c1 (stereo not drawn)
output: 1903

input: Moving on to the next compound: O=C(NCCCCc1ccccc1)c1cccc(C2SCC(=O)N2c2ccc(C3CC3)cc2)c1 (stereo not drawn)
output: 2962

input: What about this compound? O=C(NCCCCn1cccn1)c1cccc(C2SCC(=O)N2c2cc(F)ccn2)c1 (stereo not drawn)
output: 397

input: And the next one, O=C(NCCCCc1ccccc1)c1cccc(C2SCC(=O)N2c2cccc(-c3c[nH]nn3)c2)c1 (stereo not drawn) ?
output: 951

input: Likewise for O=C(NCCCCn1cccn1)c1cccc(C2SCC(=O)N2c2ccccn2)c1 (stereo not drawn) ?
output: 304

input: Now consider COc1ccccc1N1C(=O)C(C)SC1c1cccc(C(=O)NCCCCc2ccccc2)c1 (stereo not drawn) .
output: 2948

input: Further, for CC(F)(F)c1cccc(N2C(=O)CSC2c2cccc(C(=O)NCCCCc3ccccc3)c2)c1 (stereo not drawn) ?
output: 2014

----------
Could you please report measured intrinsic clearance (CLint) for the items listed next?
# test.name: Microsomal stability in rat liver microsomes assessed as intrinsic clearance at 0.1 uM incubated for 10 mins in presence of NADPH by LC-MS/MS analysis
# Type: ADME, Microsome
Write down the numeric answer in mL/min/g and omit the unit.

input: Item under review: O=C(NCCCCc1ccccc1)c1cccc(C2SCC(=O)N2c2cccc(F)c2)c1 (stereo not drawn) . Reported intrinsic clearance (CLint)?
output: 3244

input: O=C(NCCCCn1cccn1)c1cccc(C2SCC(=O)N2c2ccccn2)c1 (stereo not drawn) ?
output: 506

input: Okay, and O=C(NCCCCc1ccccc1)c1cccc(C2SCC(=O)N2c2ccc(C3CC3)cc2)c1 (stereo not drawn) ?
output: 2275

input: Now try CC(F)(F)c1cccc(N2C(=O)CSC2c2cccc(C(=O)NCCCCc3ccccc3)c2)c1 (stereo not drawn) .
output: 2323

input: How about this molecule: COc1ccccc1N1C(=O)C(C)SC1c1cccc(C(=O)NCCCCc2ccccc2)c1 (stereo not drawn)
output: 2908

input: Now try Cc1ccnc(N2C(=O)CSC2c2cccc(C(=O)NCCCCn3cccn3)c2)c1 (racemic) .
output: 1022

input: Subsequent entry: Cc1cccc(N2C(=O)CSC2c2cccc(C(=O)NCCCCc3ccccc3)c2)c1 (stereo not drawn)
output: 3139

input: Follow-up entry: COc1ccc(F)cc1N1C(=O)CSC1c1cccc(C(=O)NCCCCn2cccn2)c1 (stereo not drawn)
output: 1472

input: // same read-out, input: O=C(NCCCCc1ccccc1)c1cccc(C2SCC(=O)N2c2cccc(C3CC3)c2)c1 (stereo not drawn)
output: 3543

input: # repeat for O=C(NCCCCc1ccccc1)c1cccc(C2SCC(=O)N2c2ccccn2)c1 (stereo not drawn)
output: 1482

input: What about C#Cc1cccc(N2C(=O)CSC2c2cccc(C(=O)NCCCCc3ccccc3)c2)c1 (stereo not drawn) ?
output: 1818

input: Consider next the molecule C#Cc1cc(C(=O)NCCCCc2ccccc2)cc(C2SCC(=O)N2c2ccccc2OC)c1 (stereo not drawn) in the same way.
output: 2204

input: Also, COc1ccccc1N1C(=O)CSC1c1cc(F)cc(C(=O)NCCCCc2ccccc2)c1 (stereo not drawn) please.
output: 3259
